test-method-notes: Growth inhibition of human melanoma cells after 48 hrs
Format: functional
settings: Melanoma cell, read-out: LC50 (the source's name)
measured-attribute: CC50

Give the reported CC50 for this compound. COc1cc2c(/C=C3/C(=O)N(C)c4ccc(O)cc43)c[nH]c2cc1C 66.1 µM

Give the reported CC50 for this compound. COc1cc2c(cc1C)NC(=O)/C2=C/c1c(Cl)n(C)c2cc(C)c(OC)cc12 57.5 µM

Give the reported CC50 for this compound. CN(C)c1ccc2[nH]c(Cl)c(/C=C3/C(=O)N(C)c4ccc(O)cc43)c2c1 66.1 µM

Give the reported CC50 for this compound. CN(C)c1ccc2[nH]c(Cl)c(/C=C3/C(=O)Nc4ccc(O)cc43)c2c1 79.4 µM

----------
Tested on: NSCLC
test-method-notes: Growth inhibition of human NSCLC cells after 48 hrs
Assay type: functional
measured-attribute: TGI (µM)
Field: numeric (µM). Do not append units.

1) O=C1Nc2cccc(Cl)c2/C1=C\c1c(Cl)[nH]c2c1ccc1ccccc12; 28.2

Proceed to the following item.
Give the reported TGI for this compound. COc1ccc2[nH]cc(/C=C3/C(=O)Nc4ccccc43)c2c1 25.1

----------
test-method-notes: Growth inhibition of human Ovarian cancer cells after 48 hrs
Type: functional
settings: Cancer cell lines
Where a name gives a salt, the structure may show the parent alone.
So basically: is GI50 under 2 µM? Then satisfied. Not under? Then not satisfied.

1. COc1ccc2c(c1)/C(=C\c1c(Cl)[nH]c3ccc(N(C)C)cc13)C(=O)N2; not satisfied
2. COc1ccc2[nH]cc(/C=C3/C(=O)Nc4ccccc43)c2c1; not satisfied
3. CC[C@]1(O)C[C@H]2CN(CCc3c([nH]c4ccccc34)[C@@](C(=O)OC)(c3cc4c(cc3OC)N(C=O)[C@H]3[C@@](O)(C(=O)OC)[C@H](OC(C)=O)[C@]5(CC)C=CCN6CC[C@]43[C@@H]65)C2)C1 [VINCRISTINE SULFATE]; satisfied
4. COc1cc2c(cc1C)N(C)C(=O)/C2=C/c1c(Cl)[nH]c2ccccc12; satisfied

Does the reported GI50 of COc1cc2c(/C=C3/C(=O)N(C)c4ccc(O)cc43)c(Cl)n(C)c2cc1C stay below 2 µM? satisfied

Does the reported GI50 of COc1cc2c(/C=C3/C(=O)Nc4ccc(Br)cc43)c(Cl)n(C)c2cc1C stay below 2 µM? not satisfied

Does the reported GI50 of COc1cc2c(cc1C)NC(=O)/C2=C/c1c[nH]c2ccccc12 stay below 2 µM? not satisfied

Does the reported GI50 of COc1cc2c(/C=C3/C(=O)Nc4cc(Cl)ccc43)c(Cl)[nH]c2cc1C stay below 2 µM? satisfied

Does the reported GI50 of O=C1Nc2cccc(Cl)c2/C1=C\c1c(Cl)[nH]c2c1ccc1ccccc12 stay below 2 µM? not satisfied

Does the reported GI50 of CN(C)c1ccc2[nH]c(Cl)c(/C=C3/C(=O)Nc4ccc(Cl)cc43)c2c1 stay below 2 µM? not satisfied

----------
test-method-notes: Growth inhibition of human melanoma cells after 48 hrs
Assay type: functional
settings: Melanoma cell
measured-attribute: GI50 (µM)
Field: numeric (µM). Do not append units.

Here are 5 molecules together with their reported answers.
1. COc1ccc2[nH]cc(/C=C3/C(=O)Nc4ccccc43)c2c1; 6.61
2. COc1cc2c(/C=C3/C(=O)N(C)c4ccc(O)cc43)c(Cl)n(C)c2cc1C; 0.11
3. CN(C)c1ccc2[nH]c(Cl)c(/C=C3/C(=O)Nc4ccc(O)cc43)c2c1; 5.25
4. CN(C)c1ccc2[nH]c(Cl)c(/C=C3/C(=O)N(C)c4ccc(O)cc43)c2c1; 4.57
5. COc1cc2c(/C=C3/C(=O)N(C)c4ccc(O)cc43)c[nH]c2cc1C; 3.24

Give the reported GI50 for this molecule. COc1cc2c(/C=C3/C(=O)Nc4ccc(N(C)C)cc43)c(Cl)n(C)c2cc1C 10.2

Give the reported GI50 for this molecule. COc1cc2c(/C=C3/C(=O)N(C)c4ccccc43)c[nH]c2cc1C 3.09

Give the reported GI50 for this molecule. COc1cc2c(/C=C3/C(=O)Nc4ccc(Br)cc43)c(Cl)[nH]c2cc1C 2.14

Give the reported GI50 for this molecule. COc1cc2c(/C=C3/C(=O)Nc4cc(Cl)ccc43)c(Cl)n(C)c2cc1C 0.02

Give the reported GI50 for this molecule. COc1cc2c(/C=C3/C(=O)Nc4ccc(Br)cc43)c(Cl)n(C)c2cc1C 1.55
